- experimental.details: self-splicing fitness, log relative to wild type (ln ratio); higher = more splicing; Tetrahymena group I intron in knt gene, E. coli kanamycin selection, DiMSum; sequences stand for … in CUCUCU…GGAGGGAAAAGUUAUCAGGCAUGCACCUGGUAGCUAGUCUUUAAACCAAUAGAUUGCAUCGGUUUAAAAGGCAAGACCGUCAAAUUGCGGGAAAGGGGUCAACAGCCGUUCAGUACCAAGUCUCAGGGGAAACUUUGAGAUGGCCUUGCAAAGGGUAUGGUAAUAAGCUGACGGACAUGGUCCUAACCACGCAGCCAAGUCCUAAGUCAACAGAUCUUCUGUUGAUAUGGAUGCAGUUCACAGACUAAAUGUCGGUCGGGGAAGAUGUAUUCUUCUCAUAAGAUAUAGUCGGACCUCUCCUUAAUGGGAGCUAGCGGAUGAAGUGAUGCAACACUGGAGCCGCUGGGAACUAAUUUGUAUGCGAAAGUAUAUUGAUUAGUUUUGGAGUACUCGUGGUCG;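 note: selection with 25 µg/mL kanamycin versus none on LB agar overnight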
- measurement.conditions: 30 °C
measured.property: self-splicing fitness (ln)
Format: numeric value only, no unit, no commentary.

self-splicing fitness (ln) reading for GCUUAGCAAUAUUACGAAGG : -0.605

self-splicing fitness (ln) reading for UUGCAGCAAUAUUACGCAAG : -1.92

self-splicing fitness (ln) reading for GCAUAGCAAUAUUACGAGCA : -1.39

self-splicing fitness (ln) reading for UGGUAGCAAUAUUACGUAAG : -1.53

self-splicing fitness (ln) reading for GCAUAGCAAUAUUACGGACG : -1.7

self-splicing fitness (ln) reading for GCUAAGCAAUAUUACGGCAG : -3.28

self-splicing fitness (ln) reading for AAACAGCAAUAUUACGGAAU : -3.81

self-splicing fitness (ln) reading for AUUAAGCAAUAUUACGUACG : -1.15

###

- experimental.details: self-splicing fitness, log relative to wild type (ln ratio); higher = more splicing; Tetrahymena group I intron in knt gene, E. coli kanamycin selection, DiMSum; sequences stand for … in CUCUCU…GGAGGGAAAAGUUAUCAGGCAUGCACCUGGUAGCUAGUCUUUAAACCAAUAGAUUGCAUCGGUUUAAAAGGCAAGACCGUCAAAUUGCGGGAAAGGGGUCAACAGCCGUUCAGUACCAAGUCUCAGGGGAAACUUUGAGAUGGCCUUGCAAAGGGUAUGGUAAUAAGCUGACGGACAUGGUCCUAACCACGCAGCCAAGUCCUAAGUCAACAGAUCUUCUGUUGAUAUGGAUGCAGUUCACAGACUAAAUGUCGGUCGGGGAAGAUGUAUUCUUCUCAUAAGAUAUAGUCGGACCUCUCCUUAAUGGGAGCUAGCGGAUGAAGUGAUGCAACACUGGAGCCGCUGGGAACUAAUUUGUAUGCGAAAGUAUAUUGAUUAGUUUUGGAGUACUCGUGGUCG
- measurement.conditions: 30 °C
measured.property: self-splicing fitness (ln)
Format: numeric value only, no unit, no commentary.

self-splicing fitness (ln) reading for AAUAAGCAAUAUUACGAGCA : -1.37

self-splicing fitness (ln) reading for AAGCAGCAAUAUUACGGGCA : -0.552

self-splicing fitness (ln) reading for UUUCAGCAAUAUUACGAGGA : -0.995

self-splicing fitness (ln) reading for AUUUAGCAAUAUUACGCAUG : -1.05

self-splicing fitness (ln) reading for CUUGAGCAAUAUUACGAGCC : -1.39

self-splicing fitness (ln) reading for GUAGAGCAAUAUUACGCUGA : -2.33

self-splicing fitness (ln) reading for UGUGAGCAAUAUUACGACCG : -1.22

self-splicing fitness (ln) reading for GAACAGCAAUAUUACGCUAG : -1.69

self-splicing fitness (ln) reading for UCAAAGCAAUAUUACGCCAA : -2.7

self-splicing fitness (ln) reading for UCCGAGCAAUAUUACGCUAU : -2.09

self-splicing fitness (ln) reading for AGGGAGCAAUAUUACGUGCC : -2.79

self-splicing fitness (ln) reading for UAACAGCAAUAUUACGUUUG : -2.13

self-splicing fitness (ln) reading for AUAAAGCAAUAUUACGGCAC : -0.531

self-splicing fitness (ln) reading for UAGAAGCAAUAUUACGAUAA : -1.05

self-splicing fitness (ln) reading for AGGCAGCAAUAUUACGCUAC : -2.44

self-splicing fitness (ln) reading for UGUUAGCAAUAUUACGAUGA : -0.408
